test system: Klebsiella pneumoniae; test: Antibacterial activity against Klebsiella pneumoniae ATCC 700603 after 20 hrs by broth microdilution method; assay type: functional; conditions: ATCC 700603, 20 h
measured_endpoint: MIC

Fill in: MIC of C[C@H](O)[C@]1(NC(=O)N(C)C)[C@@H](N)[C@H](Nc2cccc(C(F)(F)F)c2)[C@](O)(CO)[C@]1(C)O is ___
128 µg/mL

Fill in: MIC of CC(=O)c1cccc(N[C@H]2[C@H](N)[C@@](NC(=O)N3CCOCC3)([C@H](C)O)[C@@](C)(O)[C@@]2(O)CO)c1 is ___
> 128 µg/mL

Fill in: MIC of C[C@H](O)[C@]1(NC(=O)N(C)C)[C@@H](N)[C@H](Nc2ccccc2)[C@](O)(CO)[C@]1(C)O is ___
64 µg/mL

Fill in: MIC of CC(=O)c1cccc(N[C@H]2[C@H](N)[C@@](NC(=O)N3CCCCC3)([C@H](C)O)[C@@](C)(O)[C@@]2(O)CO)c1 is ___
> 128 µg/mL
